Tested on: PA-041, blaNDM
test.description: MIC / checkerboard with ATM
Assay type: cell-based, P. aeruginosa
Set-up: key: S: susceptible; I: intermediate; R: resistant
test.settings: PA-041; Table S2
recorded.metric: Susceptibility category

molecule="NCC[C@H](O)C(=O)N[C@@H]1C[C@H](N)[C@@H](O[C@H]2O[C@H](CN)[C@@H](O)[C@H](O)[C@H]2O)[C@H](O)[C@H]1O[C@H]1O[C@H](CO)[C@@H](O)[C@H](N)[C@H]1O [AMK, amikacin, reference compound]" recorded_metric="Susceptibility category" test_value=R
molecule="CNC(C)C1CCC(N)C(OC2C(N)CC(N)C(OC3OCC(C)(O)C(NC)C3O)C2O)O1 (stereo not shown) [GEN, gentamicin, reference compound]" recorded_metric="Susceptibility category" test_value=S
molecule="C[C@@H](O)[C@H]1C(=O)N2C(C(=O)O)=C(S[C@@H]3CN[C@H](C(=O)N(C)C)C3)[C@H](C)[C@H]12 [MEM, meropenem, reference compound]" recorded_metric="Susceptibility category" test_value=R
molecule=C[C@H]1[C@H](NC(=O)/C(=N\OC(C)(C)C(=O)O)c2csc(N)n2)C(=O)N1S(=O)(=O)O recorded_metric="Susceptibility category" test_value=S
molecule="CC(C)(O/N=C(\\C(=O)N[C@@H]1C(=O)N2C(C(=O)[O-])=C(C[n+]3ccccc3)CS[C@H]12)c1csc(N)n1)C(=O)O [CAZ, ceftazidime, reference compound]" recorded_metric="Susceptibility category" test_value=R
molecule="CO/N=C(\\C(=O)N[C@@H]1C(=O)N2C(C(=O)[O-])=C(C[N+]3(C)CCCC3)CS[C@H]12)c1csc(N)n1 [FEP, cefepime, reference compound]" recorded_metric="Susceptibility category" test_value=R
molecule="C[C@@H](O)[C@H]1C(=O)N2C(C(=O)O)=C(SCCN=CN)C[C@H]12 [IPM, imipenem, reference compound]" recorded_metric="Susceptibility category" test_value=R

---

system.name: NDM-1 (Klebsiella pneumoniae, UniProt C7C422)
Sequence (C7C422 29-270, looked up, species assumed): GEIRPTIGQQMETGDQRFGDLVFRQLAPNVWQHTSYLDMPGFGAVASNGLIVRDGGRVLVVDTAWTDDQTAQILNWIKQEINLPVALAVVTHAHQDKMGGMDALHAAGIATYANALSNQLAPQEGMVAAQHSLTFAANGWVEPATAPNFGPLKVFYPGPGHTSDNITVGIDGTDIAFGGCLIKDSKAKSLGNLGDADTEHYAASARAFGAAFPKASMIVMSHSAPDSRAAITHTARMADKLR
test.description: β-lactamase inhibition assay (imipenem)
test.settings: imipenem substrate; read-out: BLi, IC50 NDM-1
pIC50: −log10 of the molar value.
Measured pIC50, listed per entry.
recorded.metric: pIC50

molecular_string=C[N+](C)(CCNC(=O)COc1cc(O)c2c(=O)c(OCCC3CCCCC3)c(-c3ccc(F)c(F)c3)oc2c1)CC(=O)[O-] test_value="< 4.30"
molecular_string=CC(C)(C)CCOc1c(-c2ccc(F)c(F)c2)oc2cc(OCC(=O)N[C@@H](CCCCN)C(=O)O)cc(O)c2c1=O.Cl test_value="< 4.30"
molecular_string=CN1CCN(CCOc2cc(O)c3c(=O)c(OCCC4CCCC4)c(-c4ccc(F)c(F)c4)oc3c2)CC1 test_value="< 4.30"
molecular_string=CC(C)(C)CCOc1c(-c2ccc(F)c(F)c2)oc2cc(OCC(=O)N3CCCCC3)cc(O)c2c1=O test_value="< 4.30"
molecular_string=O=C(O)COc1cc(O)c2c(=O)c(OCCC3CCCCC3)c(-c3ccc(F)c(F)c3)oc2c1 test_value=4.83
molecular_string=CN1CCN(CCOc2cc(O)c3c(=O)c(OCCC(C)(C)C)c(-c4ccc(F)c(F)c4)oc3c2)CC1 test_value="< 4.30"
molecular_string=O=C(O)COc1cc(O)c2c(=O)c(OCCC3CCCC3)c(-c3ccc(F)c(F)c3)oc2c1 test_value=4.79

---

test.description: In vivo pharmacokinetic study
Set-up: species or system Sprague–Dawley (SD) rats
test.settings: male, Sprague-Dawley, serum; rat; Oral (10 mg/kg); read-out: MRT0–last
recorded.metric: MRT last (h)

molecule="CC(C)(C)CCOc1c(-c2ccc(F)c(F)c2)oc2cc(OCC(=O)O)cc(O)c2c1=O [Compound 5]" test_value=2.87

---

test.description: In vivo pharmacokinetic study
Design: species or system Sprague–Dawley (SD) rats
test.settings: male, Sprague-Dawley, rat, serum, iv, 5 mg/kg, Intravenous (5 mg/kg), read-out: Vz
Experimental: After administration of compound 5 (5 mg/kg intravenously and 10 mg/kg orally) to specific pathogen-free (SPF) male Sprague–Dawley (SD) rats (Medicilon Colony: 999M-017), samples of serum were taken at eight different time points (0.083, 0.25, 0.5, 1, 2, 4, 8, and 24 h). […] A standard set of parameters were calculated using non-compartmental analysis modules in FDA certified pharmacokinetic program Phoenix WinNonlin 7.0 (Pharsight, Mountain View, CA, USA).
recorded.metric: Vd (L/kg)

molecular_string=CC(C)(C)CCOc1c(-c2ccc(F)c(F)c2)oc2cc(OCC(=O)O)cc(O)c2c1=O unit_symbol=L/kg test_value=1.84

---

Tested on: PA-009, blaGES
test.description: MIC / checkerboard with ATM
Assay type: cell-based, P. aeruginosa
Design: key: S: susceptible; I: intermediate; R: resistant
test.settings: PA-009; Table S2
recorded.metric: Susceptibility category

compound="C[C@@H](O)[C@H]1C(=O)N2C(C(=O)O)=C(SCCN=CN)C[C@H]12 [IPM, imipenem, reference compound]" test_value=R
compound="NCC[C@H](O)C(=O)N[C@@H]1C[C@H](N)[C@@H](O[C@H]2O[C@H](CN)[C@@H](O)[C@H](O)[C@H]2O)[C@H](O)[C@H]1O[C@H]1O[C@H](CO)[C@@H](O)[C@H](N)[C@H]1O [AMK, amikacin, reference compound]" test_value=S
compound=C[C@H]1[C@H](NC(=O)/C(=N\OC(C)(C)C(=O)O)c2csc(N)n2)C(=O)N1S(=O)(=O)O test_value=R
compound="C[C@@H](O)[C@H]1C(=O)N2C(C(=O)O)=C(S[C@@H]3CN[C@H](C(=O)N(C)C)C3)[C@H](C)[C@H]12 [MEM, meropenem, reference compound]" test_value=R
compound="CO/N=C(\\C(=O)N[C@@H]1C(=O)N2C(C(=O)[O-])=C(C[N+]3(C)CCCC3)CS[C@H]12)c1csc(N)n1 [FEP, cefepime, reference compound]" test_value=R
compound="CNC(C)C1CCC(N)C(OC2C(N)CC(N)C(OC3OCC(C)(O)C(NC)C3O)C2O)O1 (stereo not shown) [GEN, gentamicin, reference compound]" test_value=I
compound="CC(C)(O/N=C(\\C(=O)N[C@@H]1C(=O)N2C(C(=O)[O-])=C(C[n+]3ccccc3)CS[C@H]12)c1csc(N)n1)C(=O)O [CAZ, ceftazidime, reference compound]" test_value=R

---

Tested on: PA-026, blaNDM
test.description: MIC / checkerboard with ATM
Assay type: cell-based, P. aeruginosa
Set-up: key: S: susceptible; I: intermediate; R: resistant
test.settings: PA-026; Table S2
recorded.metric: Susceptibility category

compound="CC(C)(O/N=C(\\C(=O)N[C@@H]1C(=O)N2C(C(=O)[O-])=C(C[n+]3ccccc3)CS[C@H]12)c1csc(N)n1)C(=O)O [CAZ, ceftazidime, reference compound]" system_name="PA-026, blaNDM" test_value=R
compound=C[C@H]1[C@H](NC(=O)/C(=N\OC(C)(C)C(=O)O)c2csc(N)n2)C(=O)N1S(=O)(=O)O system_name="PA-026, blaNDM" test_value=S
compound="CNC(C)C1CCC(N)C(OC2C(N)CC(N)C(OC3OCC(C)(O)C(NC)C3O)C2O)O1 (stereo not shown) [GEN, gentamicin, reference compound]" system_name="PA-026, blaNDM" test_value=S
compound="CO/N=C(\\C(=O)N[C@@H]1C(=O)N2C(C(=O)[O-])=C(C[N+]3(C)CCCC3)CS[C@H]12)c1csc(N)n1 [FEP, cefepime, reference compound]" system_name="PA-026, blaNDM" test_value=S
compound="C[C@@H](O)[C@H]1C(=O)N2C(C(=O)O)=C(SCCN=CN)C[C@H]12 [IPM, imipenem, reference compound]" system_name="PA-026, blaNDM" test_value=I
compound="NCC[C@H](O)C(=O)N[C@@H]1C[C@H](N)[C@@H](O[C@H]2O[C@H](CN)[C@@H](O)[C@H](O)[C@H]2O)[C@H](O)[C@H]1O[C@H]1O[C@H](CO)[C@@H](O)[C@H](N)[C@H]1O [AMK, amikacin, reference compound]" system_name="PA-026, blaNDM" test_value=S
compound="C[C@@H](O)[C@H]1C(=O)N2C(C(=O)O)=C(S[C@@H]3CN[C@H](C(=O)N(C)C)C3)[C@H](C)[C@H]12 [MEM, meropenem, reference compound]" system_name="PA-026, blaNDM" test_value=S

---

test.description: In vivo pharmacokinetic study
Design: species or system Sprague–Dawley (SD) rats
test.settings: male, Sprague-Dawley, rat, serum, iv, 5 mg/kg, Intravenous (5 mg/kg), read-out: Vss
recorded.metric: Vd (L/kg)

molecule="CC(C)(C)CCOc1c(-c2ccc(F)c(F)c2)oc2cc(OCC(=O)O)cc(O)c2c1=O [Compound 5]" test_value=0.65
